Attribute: inhibition at 1 µM
# SYSTEM_TESTED: alpha7 receptor (high affinity alpha-bungarotoxin binding, rat brain membranes) (Rattus norvegicus, UniProt Q05941)
# Sequence (Q05941 23-502): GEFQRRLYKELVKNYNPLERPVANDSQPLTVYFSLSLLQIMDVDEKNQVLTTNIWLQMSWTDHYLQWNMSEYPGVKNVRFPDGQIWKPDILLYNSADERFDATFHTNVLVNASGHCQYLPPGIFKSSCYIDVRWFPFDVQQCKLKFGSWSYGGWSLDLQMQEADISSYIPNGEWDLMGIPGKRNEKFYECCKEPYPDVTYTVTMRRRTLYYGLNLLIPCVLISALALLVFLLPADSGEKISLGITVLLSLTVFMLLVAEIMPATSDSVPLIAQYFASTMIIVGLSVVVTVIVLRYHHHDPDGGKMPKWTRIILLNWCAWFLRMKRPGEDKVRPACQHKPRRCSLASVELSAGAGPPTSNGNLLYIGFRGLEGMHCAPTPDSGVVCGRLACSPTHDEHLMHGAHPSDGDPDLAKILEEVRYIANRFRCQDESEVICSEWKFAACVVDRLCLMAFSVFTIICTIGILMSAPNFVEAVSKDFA
# ASSAY_METHOD_TEXT: biochemical
# CONDITION: Table 4; read-out: Receptor Binding α7
VALUE_KIND: inhibition at 1 µM

* COc1ccc(/C=C2\CCCN=C2c2cccnc2)c(OC)c1 [DMXB, 3-(2,4-Dimethoxybenzylidene) anabaseine] | 52%
* C(=C\c1ccccc1)/C=C1\CCCN=C1c1cccnc1 [3-CA, E,E-3-(Cinnamylidene)anabaseine] | 94.7%
* COc1ccccc1/C=C/C=C1\CCCN=C1c1cccnc1 [2-MeOCA, E,E-3-(2-Methoxycinnamylidene)anabaseine] | 94.9%
* COc1ccc(C(C)=C2CCCN=C2c2cccnc2)c(OC)c1 [GTS-80, 3-(2,4-dimethoxy-α-methyl-benzylidene)] | 85%
* COc1ccc(/C=C/C=C2\CCCN=C2c2cccnc2)cc1 [4-MeOCA, E,E-3-(4-Methoxycinnamylidene)anabaseine] | 94.1%
* Oc1ccc(C=C2CCCN=C2c2cccnc2)cc1 [GTS-7, 3-(4-hydroxybenzylidene)anabaseine] | 69.3%
* CN(C)CCCOc1ccc(C=C2CCCN=C2c2cccnc2)cc1 [compound 15] | 87%

----------
# SYSTEM_TESTED: rat alpha7 receptor (Rattus norvegicus)
# ASSAY_METHOD_TEXT: cell-based
# CONDITION: read-out: alpha7 activation: response, normalized to 500 μM acetylcholine (maximum response)
Lab note: anything with Emax at or over 30% counts as 1; the rest go in 0.

* COc1cc(O)ccc1C=C1CCCN=C1c1cccnc1 | 1
* COc1ccc(C=C2CCCN=C2c2cccnc2)c(O)c1 | 0
* Nc1ccc(C=C2CCCN=C2c2cccnc2)cc1 | 1
* COc1ccc(C=C2CCCN=C2c2cccnc2)cc1 | 0
* Oc1ccc(C=C2CCCN=C2c2cccnc2)cc1 [GTS-7, 3-(4-hydroxybenzylidene)anabaseine] | 1
* COc1ccc(/C=C2\CCCN=C2c2cccnc2)c(OC)c1 | 0

----------
Attribute: inhibition at 1 µM
# SYSTEM_TESTED: alpha7 receptor (high affinity alpha-bungarotoxin binding, rat brain membranes) (Rattus norvegicus, UniProt Q05941)
# ASSAY_METHOD_TEXT: biochemical
# CONDITION: Table 4; read-out: Receptor Binding α7
Where a name gives a salt, the structure may show the parent alone.
VALUE_KIND: inhibition at 1 µM (%)

• COc1ccc(C=C2CCCNC2c2cccnc2)c(OC)c1 (stereo not drawn) [3(4-dimethoxy-benzylidene)anabasine] = 9
• COc1ccc(/C=C/C=C2\CCCN=C2c2cccnc2)c(OC)c1 [GTS-87, dihydrochloride] = 76
• COc1cc(O)ccc1/C=C/C=C1\CCCN=C1c1cccnc1 [GTS-86, dihydrochloride] = 90

----------
# SYSTEM_TESTED: rat alpha4beta2 receptor (Rattus norvegicus, UniProt P09483+P12390)
# Sequence (P09483 31-630): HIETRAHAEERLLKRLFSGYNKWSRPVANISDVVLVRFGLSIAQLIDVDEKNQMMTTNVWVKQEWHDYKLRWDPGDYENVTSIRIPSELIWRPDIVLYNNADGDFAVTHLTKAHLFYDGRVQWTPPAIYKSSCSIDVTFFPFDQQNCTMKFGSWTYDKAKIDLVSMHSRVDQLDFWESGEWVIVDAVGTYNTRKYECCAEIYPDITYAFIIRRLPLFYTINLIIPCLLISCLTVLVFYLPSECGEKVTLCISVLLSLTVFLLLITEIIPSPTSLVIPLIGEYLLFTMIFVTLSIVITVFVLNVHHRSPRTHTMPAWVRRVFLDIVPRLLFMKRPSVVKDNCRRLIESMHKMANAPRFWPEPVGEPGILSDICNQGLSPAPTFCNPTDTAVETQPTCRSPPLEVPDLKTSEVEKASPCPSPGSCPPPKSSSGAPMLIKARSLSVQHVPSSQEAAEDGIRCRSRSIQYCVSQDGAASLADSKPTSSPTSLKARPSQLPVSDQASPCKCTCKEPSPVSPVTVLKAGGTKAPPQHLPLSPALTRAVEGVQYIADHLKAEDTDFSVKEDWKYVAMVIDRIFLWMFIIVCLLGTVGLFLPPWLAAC
# Sequence (P12390 25-500): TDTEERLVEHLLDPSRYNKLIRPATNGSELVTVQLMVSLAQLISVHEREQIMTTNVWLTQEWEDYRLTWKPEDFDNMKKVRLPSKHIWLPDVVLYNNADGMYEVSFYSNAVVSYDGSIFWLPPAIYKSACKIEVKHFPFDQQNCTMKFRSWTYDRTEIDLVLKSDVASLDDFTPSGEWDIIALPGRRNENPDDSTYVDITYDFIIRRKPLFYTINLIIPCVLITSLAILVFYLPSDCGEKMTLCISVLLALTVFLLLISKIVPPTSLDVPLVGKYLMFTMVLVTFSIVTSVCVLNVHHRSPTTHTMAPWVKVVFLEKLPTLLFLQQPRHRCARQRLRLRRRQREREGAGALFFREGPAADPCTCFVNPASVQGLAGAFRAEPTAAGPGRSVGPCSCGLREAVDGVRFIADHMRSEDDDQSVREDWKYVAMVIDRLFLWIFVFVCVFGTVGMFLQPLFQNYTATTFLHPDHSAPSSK
# ASSAY_METHOD_TEXT: Activation of alpha4beta2 receptors expressed in Xenopus oocytes
# Type: cell-based
# CONDITION: Table 4; read-out: Oocytes Agonist α4
VALUE_KIND: Emax (%)

- COc1ccccc1/C=C/C=C1\CCCN=C1c1cccnc1: 2.2
- C(=C\c1ccccc1)/C=C1\CCCN=C1c1cccnc1: 2.6

----------
Attribute: Emax
# SYSTEM_TESTED: rat alpha7 receptor (Rattus norvegicus, UniProt Q05941)
# ASSAY_METHOD_TEXT: cell-based
# CONDITION: Table 4; read-out: Oocytes Agonist α7
VALUE_KIND: Emax

* C(=C\c1ccccc1)/C=C1\CCCN=C1c1cccnc1 | 92%
* COc1ccccc1/C=C/C=C1\CCCN=C1c1cccnc1 | 96%
* COc1ccc(/C=C2\CCCN=C2c2cccnc2)c(OC)c1 | 20%
* CN(C)CCCOc1ccc(C=C2CCCN=C2c2cccnc2)cc1 | 3%
* COc1ccc(/C=C/C=C2\CCCN=C2c2cccnc2)cc1 | 45%
